test: protein stability index of a GFP-peptide fusion (yeast GPS) (PSI 1-4); higher = more stable; sorted into four equal gates, so the index is relative within each strain; conditions: san1∆
endpoint_label: protein stability index
// response body must contain only the number

Some sequences with known protein stability index results, for comparison:
{"columns": ["seq", "measured_number"],
 "data": [
  ["KLLGIGDIESLFEQLQT [SRP54]", 2.2],
  ["PHGISVFLSNLVETCLN [BRR2]", 1.48],
  ["NQLLAALVAYTPTDVIG [RRP6]", 1.25],
  ["CLTMFEDRNESVNIAFA [ECM29]", 2.81]
]}

Next item in the queue.
Query: What does the record list as protein stability index for SKVSKQQAKGAFQKVAA [RPL24B] ?
Result: 2.78
